Test system: HEK293
METHOD: EBV LMP1 TES2 canonical NF-kB signalling blockers – cell-based, HEK293, luciferase, cherry-pick, dose response (AID 588343)
Assay type: functional
CONDITIONS USED: Homo sapiens
The source made the active and inactive calls. Rule as the data show it: actives have a measured AC50 and inactives only a lower limit.
Recorded AC50 for the following molecules

# molecule Cc1ccnc(NC(=O)c2ccc(OCC3CCCO3)cc2)c1 (centres undefined) ; its AC50 = 2.57 µM (active)

# molecule C#Cc1cc(N2CCN(C(=O)c3ccoc3)CC2)n2nc(-c3cccc(Cl)c3)cc2n1 ; its AC50 = 13.4 µM (active)

# molecule Clc1ccccc1C1=Nn2c(nnc2-c2ccncc2)SC1 ; its AC50 = 14.2 µM (active)

# molecule COc1ccc(-c2ccc(NC(=O)c3ccco3)cc2)nn1 ; its AC50 = 1.51 µM (active)
